Data provenance: the RepoRT retention time repository

- METHOD DESCRIPTION: Waters ACQUITY UPLC BEH C18, 100 × 2.1 mm, 1.7 µm, 40 °C, 0.3 to 0.4 mL/min, estimated dead time 0.63 min; A: water + 0.1% formic acid; B: methanol + 0.1% formic acid; gradient (min/%B) 0/0.5 0.1/0.5 10/80 10.1/99.5 12/99.5
- DETAILS: stereoisomer not certain
Would you mind telling me the reported LC retention time of each entry?
One number for each entry, in min.

Here are 5 molecules together with their reported answers.
MOLECULE	MEASUREMENT UNITS	MEASURED VALUE
CC(CN)CCC1(O)OC2CC3C4CCC5CC(OC6OC(CO)C(OC7OC(CO)C(O)C(OC8OCC(O)C(O)C8O)C7OC7OC(CO)C(O)C(O)C7O)C(O)C6O)CCC5(C)C4CCC3(C)C2C1C (stereo not given)	min	4.31
CC(C)=CCc1cc(-c2coc3cc(O)ccc3c2=O)ccc1O	min	7.24
CC(C)=CCCC(C)(O)C1CCC2(C)C1C(O)CC1C3(C)CCC(OC4OC(CO)C(O)C(O)C4O)C(C)(C)C3CCC12C (stereo not given)	min	9.84
Oc1cc(O)c2c(c1)OC(c1cc(O)c(O)c(O)c1)C(O)C2 (stereo not given)	min	2.49
O=c1cc(-c2ccc(O)cc2)oc2cc(OC3OC(CO)C(O)C(O)C3OC3OCC(O)(CO)C3O)cc(O)c12 (stereo not given)	min	4.71

# per-item lookup of LC retention time; items listed below
1. CCc1nccc2c1[nH]c1ccccc12
2. O=C(O)c1cc(O)c(O)c(O)c1
3. NC(CCCCNC(=O)C=Cc1ccc(O)c(O)c1)C(=O)O (stereo not given)
4. CC(CCC1(O)OC2CC3C4CC=C5CC(O)CC(OC6OCC(O)C(O)C6OC6OC(C)C(O)C(O)C6O)C5(C)C4CCC3(C)C2C1C)COC1OC(CO)C(O)C(O)C1O (stereo not given)
5. CCC(C)C(=O)OC1C(O)C2C(CN3CC(C)CCC3C2(C)O)C2CC34OC5(O)C(OC(=O)C(C)(O)C(C)O)CCC3(C)C5CC(O)C4C21O (stereo not given)

4.01
2.04
2.61
4.48
4.65
